# System: RAW 264.7 macrophages
# Format: cell-based
# Protocol Conditions: Mus musculus, RAW264.7, read-out: IC50 for the inhibition of arachidonic acid release, RAW 264.7 cells stimulated with Kdo2-Lipid A; concentration for half maximal inhibition of the maximum inhibition observed
This listing pairs compounds with measured IC50.
Attribute Measured: IC50 (µM)

item_smiles=CCCCCCCCCCCCCCC(=O)C(=O)N[C@@H](CCCC)CCCC(=O)O attribute_measured=IC50 test_result=7
item_smiles=CCCCCCCCCCC(=O)C(=O)N[C@@H](CCCC)CCC(=O)O attribute_measured=IC50 test_result=10

====

# Test system: RAW 264.7 macrophages
# Assay type: cell-based
# Protocol Conditions: Mus musculus, RAW264.7, read-out: IC50 for the inhibition of arachidonic acid release, RAW 264.7 cells stimulated with Kdo2-Lipid A; concentration for half maximal inhibition of the maximum inhibition observed
Let's look at some molecules and their measured IC50.
Attribute Measured: IC50

molecule="CCCCCCCCCCCCCCC(=O)C(=O)N[C@H](/C=C/C(=O)O)CCCC [Compound 30]" test_result="~25 µM"
molecule="CCCCCCCCCCCCCCC(=O)C(=O)N[C@@H](CCCC)COCC(=O)O [Compound 18]" test_result="~2 µM"
molecule="CCCCCCCCCCCCCCC(=O)C(=O)NCCCC(=O)O [Compound 19]" test_result="~25 µM"
